target: Itk (Homo sapiens, UniProt Q08881); construct: Kinases are expressed as either kinase domains or full length constructs; made in house; assay: Kinase inhibition assay (33P transfer), Itk; assay type: biochemical; settings: read-out: Itk-1
Sequence (Q08881 whole entry, species assumed, the tested form may be a part): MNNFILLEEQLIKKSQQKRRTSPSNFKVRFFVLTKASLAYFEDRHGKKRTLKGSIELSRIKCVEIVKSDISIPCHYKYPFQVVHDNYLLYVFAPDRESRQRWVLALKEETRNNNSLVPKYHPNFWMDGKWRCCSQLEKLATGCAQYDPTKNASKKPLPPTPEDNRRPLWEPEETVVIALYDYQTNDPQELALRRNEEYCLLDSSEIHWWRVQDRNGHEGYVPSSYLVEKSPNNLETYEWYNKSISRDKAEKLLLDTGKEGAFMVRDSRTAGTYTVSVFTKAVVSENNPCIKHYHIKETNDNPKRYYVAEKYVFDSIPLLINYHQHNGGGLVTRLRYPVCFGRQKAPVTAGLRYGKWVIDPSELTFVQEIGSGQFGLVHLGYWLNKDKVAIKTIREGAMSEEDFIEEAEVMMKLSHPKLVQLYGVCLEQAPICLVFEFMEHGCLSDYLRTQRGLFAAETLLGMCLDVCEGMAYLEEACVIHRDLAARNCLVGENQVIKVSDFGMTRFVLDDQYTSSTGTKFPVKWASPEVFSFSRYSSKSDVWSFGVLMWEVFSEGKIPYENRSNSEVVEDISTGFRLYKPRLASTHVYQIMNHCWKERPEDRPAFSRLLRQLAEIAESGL
IC50 values for the compounds below.

Below, each entry is followed by its recorded IC50 result.
>  <compound>
CC(C)(C)c1cc(Nc2ncnc(Nc3ccc(CO)cc3)n2)[nH]n1

>  <IC50>
1.18 to 7.07 µM

$$$$
>  <compound>
COc1cccc(Nc2ncnc(N(C)c3cccc(Cl)c3)n2)c1

>  <IC50>
> 13.2 µM

$$$$
>  <compound>
CCC(Nc1nc2ccccc2n1-c1ncnc(Nc2cc(OC)c(OC)c(OC)c2)n1)c1ccccc1 (centres unmarked)

>  <IC50>
> 8.8 µM

$$$$
>  <compound>
CCN(CC)CCOc1ccc(Nc2ncnc(-n3c(N)nc4ccccc43)n2)cc1OC

>  <IC50>
0.892 to 5.35 µM

$$$$
>  <compound>
O=c1[nH]c2ccccc2n1-c1ncnc(Nc2ccc3[nH]ncc3c2)n1

>  <IC50>
> 13.1 µM

$$$$

Query: Notebook: pull reported IC50 for Itk (Homo sapiens, UniProt Q08881), entry COc1cc(Nc2ncnc(Nc3ccc4c(cnn4Cc4ccccc4)c3)n2)cc(OC)c1OC
Result: 7.24 to 9.31 µM

Query: Notebook: pull reported IC50 for Itk (Homo sapiens, UniProt Q08881), entry COc1cc(Nc2ncnc(-n3c(NCc4ccc(O)cc4)nc4ccccc43)n2)cc(OC)c1OC
Result: > 9.01 µM

Query: Notebook: pull reported IC50 for Itk (Homo sapiens, UniProt Q08881), entry COc1cc(Nc2ncnc(-n3c(NCCc4ccccn4)nc4ccccc43)n2)cc(OC)c1OC
Result: 0.802 to 4.81 µM

----------
IC50 values for the compounds below.
target: Itk (Homo sapiens, UniProt Q08881); construct: Kinases are expressed as either kinase domains or full length constructs; made in house; assay: Kinase inhibition assay (33P transfer), Itk; format: biochemical; settings: Table 3; read-out: Itk-1

Below, each entry is followed by its recorded IC50 result.
>  <compound>
COc1cc(Nc2ncnc(-n3c(Nc4ccc(C)cc4)nc4ccccc43)n2)cc(OC)c1OC [Compound 385]

>  <system>
Itk (Homo sapiens, UniProt Q08881)

>  <endpoint.label>
IC50

>  <observed.measurement>
> 9.31 µM

$$$$
>  <compound>
COc1ccc(Sc2ncnc(Nc3cc(OC)c(OC)c(OC)c3)n2)cc1 [Compound 175]

>  <system>
Itk (Homo sapiens, UniProt Q08881)

>  <endpoint.label>
IC50

>  <observed.measurement>
> 11.2 µM

$$$$
>  <compound>
COc1cc(Nc2ncnc(Nc3cccc(OC(F)(F)F)c3)n2)cc(OC)c1OC [Compound 250]

>  <system>
Itk (Homo sapiens, UniProt Q08881)

>  <endpoint.label>
IC50

>  <observed.measurement>
> 10.3 µM

$$$$
>  <compound>
COc1ccc(Nc2ncnc(Nc3cc(-c4ccco4)n[nH]3)n2)cc1OC [Compound 337]

>  <system>
Itk (Homo sapiens, UniProt Q08881)

>  <endpoint.label>
IC50

>  <observed.measurement>
1.05 to 6.33 µM

$$$$
>  <compound>
COc1cc(Nc2ncnc(-c3ccnc(NCCCO)c3)n2)cc(OC)c1OC [Compound 180]

>  <system>
Itk (Homo sapiens, UniProt Q08881)

>  <endpoint.label>
IC50

>  <observed.measurement>
> 10.9 µM

$$$$
>  <compound>
COc1cc(Nc2ncnc(-n3c(Nc4cccc(C)c4)nc4ccccc43)n2)cc(OC)c1OC [Compound 386]

>  <system>
Itk (Homo sapiens, UniProt Q08881)

>  <endpoint.label>
IC50

>  <observed.measurement>
> 9.31 µM

$$$$
>  <compound>
COc1cc(Nc2ncnc(Nc3ccc(F)c(Cl)c3)n2)cc(OC)c1OC [Compound 61]

>  <system>
Itk (Homo sapiens, UniProt Q08881)

>  <endpoint.label>
IC50

>  <observed.measurement>
> 11.1 µM

$$$$

Now consider the entry below.
Query: Notebook: pull reported IC50 for Itk (Homo sapiens, UniProt Q08881), entry O=c1[nH]c2ccccc2n1-c1ncnc(Nc2ccc(F)c(Cl)c2)n1 [Compound 459]
Result: > 12.6 µM

The origin of these recorded values is patent US7074789B2.
